Target or test system: P-gp (ABCB1) ATPase activity (Homo sapiens, UniProt P08183)
Sequence (P08183 whole entry): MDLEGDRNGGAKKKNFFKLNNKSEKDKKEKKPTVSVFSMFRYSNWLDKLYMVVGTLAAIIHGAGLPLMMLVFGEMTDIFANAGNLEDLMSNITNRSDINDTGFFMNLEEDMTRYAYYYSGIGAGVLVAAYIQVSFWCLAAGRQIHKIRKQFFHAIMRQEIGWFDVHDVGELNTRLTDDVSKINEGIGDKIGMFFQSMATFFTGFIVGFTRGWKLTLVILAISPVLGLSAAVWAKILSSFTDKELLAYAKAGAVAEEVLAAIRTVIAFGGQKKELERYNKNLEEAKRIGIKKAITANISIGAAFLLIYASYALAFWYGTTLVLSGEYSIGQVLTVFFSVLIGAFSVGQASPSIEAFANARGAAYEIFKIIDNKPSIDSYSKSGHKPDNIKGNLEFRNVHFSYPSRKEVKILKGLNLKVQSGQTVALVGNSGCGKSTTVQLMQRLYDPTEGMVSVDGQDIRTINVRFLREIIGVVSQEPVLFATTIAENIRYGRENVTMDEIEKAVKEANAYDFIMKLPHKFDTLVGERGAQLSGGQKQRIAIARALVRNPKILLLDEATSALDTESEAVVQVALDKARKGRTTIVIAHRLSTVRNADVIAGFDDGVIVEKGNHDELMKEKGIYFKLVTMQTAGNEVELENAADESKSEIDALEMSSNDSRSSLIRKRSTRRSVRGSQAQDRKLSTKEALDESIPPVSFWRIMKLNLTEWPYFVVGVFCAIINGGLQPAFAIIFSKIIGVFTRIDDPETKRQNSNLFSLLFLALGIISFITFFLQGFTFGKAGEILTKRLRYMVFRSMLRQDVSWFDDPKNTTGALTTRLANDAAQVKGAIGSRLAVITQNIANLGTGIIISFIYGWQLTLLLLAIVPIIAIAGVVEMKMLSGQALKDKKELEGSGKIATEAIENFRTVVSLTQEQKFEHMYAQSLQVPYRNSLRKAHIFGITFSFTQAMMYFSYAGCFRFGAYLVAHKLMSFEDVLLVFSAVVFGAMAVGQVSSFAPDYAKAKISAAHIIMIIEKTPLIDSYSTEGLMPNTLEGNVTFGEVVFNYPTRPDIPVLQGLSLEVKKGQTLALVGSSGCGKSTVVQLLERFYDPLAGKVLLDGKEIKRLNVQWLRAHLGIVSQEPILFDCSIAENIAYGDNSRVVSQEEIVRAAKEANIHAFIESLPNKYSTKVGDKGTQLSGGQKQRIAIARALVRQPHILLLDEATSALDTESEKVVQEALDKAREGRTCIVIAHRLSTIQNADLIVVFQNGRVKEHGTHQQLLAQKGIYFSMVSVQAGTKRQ
Assay name: Binding affinity to human His10-tagged P-gp expressed in BHK cells assessed as induction of ATPase activity measured as inorganic phosphate release by spectrophotometric analysis relative to control
Assay type: cell-based
Condition label: read-out: FC
Attribute: fold induction
Field format: numeric only.

# annotated cases, reported fold induction shown
>>> print(df.to_string())
                            compound_string                     target_or_test_system  property_measured  result_value
0  CCN(CC)C(=S)c1ccc(-c2c3ccc(=[N+](C)C)cc-3sc3cc4c(cc23)C(C)(C)CCN4C)s1.F[P-](F)(F)(F)(F)F  P-gp (ABCB1) ATPase activity (Homo sapiens, UniProt P08183)     fold induction           4.3
1  CCN(CC)C(=O)c1ccc(-c2c3ccc(=[N+](C)C)cc-3sc3c4c5c(cc23)CCCN5CCC4)s1.F[P-](F)(F)(F)(F)F  P-gp (ABCB1) ATPase activity (Homo sapiens, UniProt P08183)     fold induction           5.6
2  C[N+](C)=c1ccc2c(-c3ccc(C(=O)N4CCCCC4)s3)c3cc4c5c(c3sc-2c1)CCCN5CCC4.F[P-](F)(F)(F)(F)F  P-gp (ABCB1) ATPase activity (Homo sapiens, UniProt P08183)     fold induction           4.1
3  CCN(CC)C(=S)c1ccc(-c2c3ccc(=[N+](C)C)cc-3sc3cc(N(C)C)ccc23)s1.F[P-](F)(F)(F)(F)F  P-gp (ABCB1) ATPase activity (Homo sapiens, UniProt P08183)     fold induction          12.1

Ask | Report fold induction for `CCN(CC)C(=O)c1ccc(-c2c3ccc(=[N+](C)C)cc-3sc3cc4c(cc23)C(C)(C)CCN4C)s1.F[P-](F)(F)(F)(F)F` please.
Reply | 4.7

Ask | Report fold induction for `CCN(CC)C(=S)c1ccc(-c2c3ccc(=[N+](C)C)cc-3sc3c4c5c(cc23)CCCN5CCC4)s1.F[P-](F)(F)(F)(F)F` please.
Reply | 4.6

---

Assay name: Permeability from apical to basal side of MDCK2 cells expressing MDR1 assessed as fraction of mass extracted by methanol wash at 5 uM after 1 hr by LC-MS/MS analysis in presence of LSN 335984
Format: ADME, cell-based, Canis lupus familiaris
Condition label: dog, mdck-ii
Property measured: permeability (%)
Please respond with the number in % and leave the unit unwritten.

                            compound_string  property_measured  result_value
0  CCN(CC)C(=S)c1ccc(-c2c3ccc(=[N+](C)C)cc-3sc3cc4c(cc23)C(C)(C)CCN4C)s1.F[P-](F)(F)(F)(F)F       permeability            64
1  C[N+](C)=c1ccc2c(-c3ccc(C(=S)N4CCCCC4)s3)c3cc4c5c(c3sc-2c1)CCCN5CCC4.F[P-](F)(F)(F)(F)F       permeability            64
2  CN1CCC(C)(C)c2cc3c(-c4ccc(C(=O)N5CCCCC5)s4)c4ccc(=[N+](C)C)cc-4sc3cc21.F[P-](F)(F)(F)(F)F       permeability            45
3  CN1CCC(C)(C)c2cc3c(-c4ccc(C(=S)N5CCCCC5)s4)c4ccc(=[N+](C)C)cc-4sc3cc21.F[P-](F)(F)(F)(F)F       permeability            62
4  CCN(CC)C(=O)c1ccc(-c2c3ccc(=[N+](C)C)cc-3sc3c4c5c(cc23)CCCN5CCC4)s1.F[P-](F)(F)(F)(F)F       permeability            28

Ask | Report permeability for `CCN(CC)C(=S)c1ccc(-c2c3ccc(=[N+](C)C)cc-3sc3c4c5c(cc23)CCCN5CCC4)s1.F[P-](F)(F)(F)(F)F` please.
Reply | 45

Ask | Report permeability for `CCN(CC)C(=O)c1ccc(-c2c3ccc(=[N+](C)C)cc-3sc3cc4c(cc23)C(C)(C)CCN4C)s1.F[P-](F)(F)(F)(F)F` please.
Reply | 33

Ask | Report permeability for `CCN(CC)C(=S)c1ccc(-c2c3ccc(=[N+](C)C)cc-3sc3cc(N(C)C)ccc23)s1.F[P-](F)(F)(F)(F)F` please.
Reply | 56

Ask | Report permeability for `C[N+](C)=c1ccc2c(-c3ccc(C(=O)N4CCCCC4)s3)c3cc4c5c(c3sc-2c1)CCCN5CCC4.F[P-](F)(F)(F)(F)F` please.
Reply | 42

---

Target or test system: ATP-dependent translocase ABCB1 (Homo sapiens)
Sequence (P08183 whole entry): as above
Assay name: Inhibition of MDR1 transfected in MDCK2 cells assessed as inhibition of [3H]vinblastine efflux incubated for 30 mins prior to [3H]vinblastine addition by scintillation counting
Format: cell-based, MDCK-II
Property measured: IC50 (µM)
Please respond with the number in µM and leave the unit unwritten.

# annotated cases, reported IC50 shown
In [3]: df
Out[3]:
                            compound_string  property_measured  units_label  result_value
0  CN1CCC(C)(C)c2cc3c(-c4ccc(C(=S)N5CCCCC5)s4)c4ccc(=[N+](C)C)cc-4sc3cc21.F[P-](F)(F)(F)(F)F               IC50           µM           8.9
1  CCN(CC)C(=O)c1ccc(-c2c3ccc(=[N+](C)C)cc-3sc3cc4c(cc23)C(C)(C)CCN4C)s1.F[P-](F)(F)(F)(F)F               IC50           µM             8
2  CCN(CC)C(=S)c1ccc(-c2c3ccc(=[N+](C)C)cc-3sc3cc4c(cc23)C(C)(C)CCN4C)s1.F[P-](F)(F)(F)(F)F               IC50           µM           8.7

Please turn your attention to the following entry.
Ask | Report IC50 for `CN1CCC(C)(C)c2cc3c(-c4ccc(C(=O)N5CCCCC5)s4)c4ccc(=[N+](C)C)cc-4sc3cc21.F[P-](F)(F)(F)(F)F` please.
Reply | 5.6

---

Assay name: Ratio of permeability from apical to basal side of MDCK2 cells expressing MDR1 assessed as fraction of mass extracted by methanol wash at 5 uM in presence of LSN 335984 to permeability from apical to basal side of MDCK2 cells expressing MDR1 assessed as fraction of mass extracted by methanol wash at 5 uM in absence of LSN 335984
Assay type: ADME, cell-based, Canis lupus familiaris
Condition label: dog, mdck-ii
Property measured: Ratio
Field format: numeric only.

>>> print(df.to_string())
                            compound_string  property_measured  result_value
0  CCN(CC)C(=S)c1ccc(-c2c3ccc(=[N+](C)C)cc-3sc3c4c5c(cc23)CCCN5CCC4)s1.F[P-](F)(F)(F)(F)F              Ratio           1.8
1  CCN(CC)C(=O)c1ccc(-c2c3ccc(=[N+](C)C)cc-3sc3cc4c(cc23)C(C)(C)CCN4C)s1.F[P-](F)(F)(F)(F)F              Ratio           3.3
2  CN1CCC(C)(C)c2cc3c(-c4ccc(C(=S)N5CCCCC5)s4)c4ccc(=[N+](C)C)cc-4sc3cc21.F[P-](F)(F)(F)(F)F              Ratio           1.8
3  CCN(CC)C(=O)c1ccc(-c2c3ccc(=[N+](C)C)cc-3sc3c4c5c(cc23)CCCN5CCC4)s1.F[P-](F)(F)(F)(F)F              Ratio           4.8

Ask | Report Ratio for `CCN(CC)C(=S)c1ccc(-c2c3ccc(=[N+](C)C)cc-3sc3cc(N(C)C)ccc23)s1.F[P-](F)(F)(F)(F)F` please.
Reply | 5.1

Ask | Report Ratio for `CCN(CC)C(=S)c1ccc(-c2c3ccc(=[N+](C)C)cc-3sc3cc4c(cc23)C(C)(C)CCN4C)s1.F[P-](F)(F)(F)(F)F` please.
Reply | 1.2

Ask | Report Ratio for `CN1CCC(C)(C)c2cc3c(-c4ccc(C(=O)N5CCCCC5)s4)c4ccc(=[N+](C)C)cc-4sc3cc21.F[P-](F)(F)(F)(F)F` please.
Reply | 5.2

Ask | Report Ratio for `C[N+](C)=c1ccc2c(-c3ccc(C(=O)N4CCCCC4)s3)c3cc4c5c(c3sc-2c1)CCCN5CCC4.F[P-](F)(F)(F)(F)F` please.
Reply | 6.1

---

Attribute: inhibition at 20 min, 25 µM
Target or test system: P-gp (MDR1, ABCB1) (Homo sapiens, UniProt P08183)
Sequence (P08183 whole entry): as above
Assay name: Inhibition of MDR1 transfected in MDCK2 cells assessed as increase in calcein AM uptake at 2.5*10^-5 M incubated for 30 mins prior to calcein AM influx measured after 20 mins by fluorimetric analysis relative to LSN 335984
Type: cell-based, MDCK-II
Condition label: dog, MDCK2 cells transfected with MDR1, probe calcein AM
Please respond with the number in % and leave the unit unwritten.

                            compound_string            property_measured  units_label  result_value
0  CCN(CC)C(=O)c1ccc(-c2c3ccc(=[N+](C)C)cc-3sc3c4c5c(cc23)CCCN5CCC4)s1.F[P-](F)(F)(F)(F)F  inhibition at 20 min, 25 µM            %            41
1  C[N+](C)=c1ccc2c(-c3ccc(C(=S)N4CCCCC4)s3)c3cc4c5c(c3sc-2c1)CCCN5CCC4.F[P-](F)(F)(F)(F)F  inhibition at 20 min, 25 µM            %            41
2  CN1CCC(C)(C)c2cc3c(-c4ccc(C(=S)N5CCCCC5)s4)c4ccc(=[N+](C)C)cc-4sc3cc21.F[P-](F)(F)(F)(F)F  inhibition at 20 min, 25 µM            %            64
3  CCN(CC)C(=S)c1ccc(-c2c3ccc(=[N+](C)C)cc-3sc3cc(N(C)C)ccc23)s1.F[P-](F)(F)(F)(F)F  inhibition at 20 min, 25 µM            %             3
4  CCN(CC)C(=S)c1ccc(-c2c3ccc(=[N+](C)C)cc-3sc3c4c5c(cc23)CCCN5CCC4)s1.F[P-](F)(F)(F)(F)F  inhibition at 20 min, 25 µM            %            41
5  CCN(CC)C(=O)c1ccc(-c2c3ccc(=[N+](C)C)cc-3sc3cc4c(cc23)C(C)(C)CCN4C)s1.F[P-](F)(F)(F)(F)F  inhibition at 20 min, 25 µM            %            64

Ask | Report inhibition at 20 min, 25 µM for `CN1CCC(C)(C)c2cc3c(-c4ccc(C(=O)N5CCCCC5)s4)c4ccc(=[N+](C)C)cc-4sc3cc21.F[P-](F)(F)(F)(F)F` please.
Reply | 64

Ask | Report inhibition at 20 min, 25 µM for `C[N+](C)=c1ccc2c(-c3ccc(C(=O)N4CCCCC4)s3)c3cc4c5c(c3sc-2c1)CCCN5CCC4.F[P-](F)(F)(F)(F)F` please.
Reply | 41

Ask | Report inhibition at 20 min, 25 µM for `CCN(CC)C(=S)c1ccc(-c2c3ccc(=[N+](C)C)cc-3sc3cc4c(cc23)C(C)(C)CCN4C)s1.F[P-](F)(F)(F)(F)F` please.
Reply | 64

Measured values drawn from ChEMBL document CHEMBL2203082 for this set.
